- Assayed System: human dopamine D2L receptors (long isoform) (Homo sapiens, UniProt P14416)
- Construct: expressed in transfected cells; host or cells: HEK-293
- Sequence (P14416 whole entry, canonical isoform): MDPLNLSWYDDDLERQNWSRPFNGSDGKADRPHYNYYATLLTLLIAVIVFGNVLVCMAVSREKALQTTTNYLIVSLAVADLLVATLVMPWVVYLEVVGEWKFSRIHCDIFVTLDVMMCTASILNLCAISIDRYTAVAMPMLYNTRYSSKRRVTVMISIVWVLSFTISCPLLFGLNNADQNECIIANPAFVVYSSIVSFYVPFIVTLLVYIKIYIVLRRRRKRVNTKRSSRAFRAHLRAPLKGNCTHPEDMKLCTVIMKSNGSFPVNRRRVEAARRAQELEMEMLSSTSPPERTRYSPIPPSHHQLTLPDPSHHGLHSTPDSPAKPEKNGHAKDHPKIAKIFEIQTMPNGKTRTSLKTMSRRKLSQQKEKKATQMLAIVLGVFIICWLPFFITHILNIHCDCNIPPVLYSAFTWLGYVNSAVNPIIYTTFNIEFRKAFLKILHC
- Experiment Description: Dopamine D2L receptor binding ([125I]iodospiperone displacement)
- Assay Setup: selectivity ratio, human D2L vs human D3 binding
- Description: The substance to be tested was either dissolved in methanol/Chremophor® (BASF SE) or in dimethyl sulfoxide and then diluted with water to the desired concentration. Each assay mixture was run in triplicate. • The incubation buffer contained 50 mM tris, 120 mM NaCl, 5 mM KCl, 2 mM CaCl2, 2 mM MgCl2 and 0.1% bovine serum albumin, 10 μM quinolone and 0.1% ascorbic acid (prepared fresh daily). […]
Observation Type: D2/D3, Ki (D2L)/Ki (D3)

Illustrative cases are given below, each with its answer.
{"columns": ["Molecule", "D2/D3, Ki (D2L)/Ki (D3)"],
 "data": [
  ["CC(C)c1cc(N2CCN(CCC3CCC(NC(=O)C4CCC(O)CC4)CC3)CC2)nc(C(C)(C)C)n1 (stereo not shown)", "++ (++ >20)"],
  ["CC(C)c1cc(N2CCN(CCC3CC[C@H](NC(=O)[C@H]4CC[C@H](O)CC4)C3)C[C@@H]2C)nc(C(C)(C)C)n1 (stereo partly shown)", "+++ (+++ >50)"],
  ["COCCc1cc(N2CCN(CC[C@H]3C[C@H](NC(=O)C4CCC(O)CC4)C3)CC2)nc(C(C)(C)C)n1 (relative stereo)", "++ (++ >20)"],
  ["CC(C)(C)c1cc(N2CCN(CC[C@H]3CC[C@@H](NC(=O)[C@H]4CC[C@H](O)CC4)CC3)CC2)nc(C(C)(C)C)n1", "+++ (+++ >50)"],
  ["CC(C)c1cc(N2CCN(CC[C@H]3CC[C@H](NC(=O)[C@H]4CC[C@H](O)CC4)CC3)C[C@@H]2C)nc(C(C)(C)C)n1", "+++ (+++ >50)"],
  ["COCCc1cc(N2CCN(CC[C@H]3C[C@H](NC(=O)[C@H]4CC[C@H](O)CC4)C3)CC2)nc(C(C)(C)C)n1.O=C(O)C(F)(F)F", "+++ (+++ >50)"],
  ["CC(C)(C)c1nc(N2CCN(CC[C@H]3CC[C@@H](NC(=O)[C@H]4CC[C@H](O)CC4)CC3)CC2)cc(C2(C)CC2)n1", "++ (++ >20)"],
  ["CC(C)(C)c1nc(C2CCC2)cc(N2CCN(CC[C@H]3CC[C@@H](NC(=O)[C@H]4CC[C@H](O)CC4)CC3)CC2)n1", "+++ (+++ >50)"],
  ["CC(C)(C)c1nc(C2CCC2)cc(N2CCN(CC[C@H]3C[C@H](NC(=O)[C@H]4C[C@H](O)C4)C3)CC2)n1.O=C(O)C(F)(F)F", "+++ (+++ >50)"],
  ["CC(C)(C)c1nc(N2CCN(CC[C@H]3CC[C@@H](NC(=O)[C@H]4CC[C@H](O)CC4)CC3)CC2)cc(C(F)(F)F)n1", "+++ (+++ >50)"]
]}

Looking up CC(C)c1cc(N2CCN(CCC3CC(NC(=O)[C@H]4CC[C@H](O)CC4)C3)C[C@@H]2C)nc(C(C)(C)C)n1 (stereo partly shown) , I see its D2/D3, Ki (D2L)/Ki (D3) listed as +++ (+++ >50)

Looking up "CC(C)(C)c1nc(C2CCC2)cc(N2CCN(CC[C@H]3CC[C@H](NC(=O)[C@H]4CC[C@H](O)CC4)CC3)CC2)n1" , I see its D2/D3, Ki (D2L)/Ki (D3) listed as +++ (+++ >50)

Looking up "CC(C)(C)c1nc(C2CCC2)cc(N2CCN(CC[C@H]3CC[C@@H](NC(=O)[C@H]4CC[C@@H](O)CC4)CC3)CC2)n1.O=C(O)C(F)(F)F" , I see its D2/D3, Ki (D2L)/Ki (D3) listed as +++ (+++ >50)

Looking up "COCCc1cc(N2CCN(CC[C@H]3CC[C@@H](NC(=O)[C@H]4CC[C@H](O)CC4)CC3)CC2)nc(C(C)(C)C)n1" , I see its D2/D3, Ki (D2L)/Ki (D3) listed as ++ (++ >20)

Looking up "COCCc1cc(N2CCN(CC[C@H]3CC[C@H](NC(=O)[C@H]4CC[C@H](O)CC4)CC3)C[C@H]2C)nc(C(C)(C)C)n1" , I see its D2/D3, Ki (D2L)/Ki (D3) listed as +++ (+++ >50)

Looking up "CC(C)(C)c1nc(C(F)F)cc(N2CCN(CC[C@H]3CC[C@@H](NC(=O)[C@H]4CC[C@H](O)CC4)CC3)CC2)n1" , I see its D2/D3, Ki (D2L)/Ki (D3) listed as ++ (++ >20)

Looking up CC(C)(C)c1nc(N2CCN(CCC3CCC(NC(=O)C4CCC(O)CC4)CC3)CC2)cc(C2(C)CC2)n1 (stereo not shown) , I see its D2/D3, Ki (D2L)/Ki (D3) listed as ++ (++ >20)

Looking up CC(C)(C)c1nc(C2CCC2)cc(N2CCN(CC[C@H]3CC[C@H](NC(=O)C4CC(O)(C(F)(F)F)C4)CC3)CC2)n1 (relative stereo) , I see its D2/D3, Ki (D2L)/Ki (D3) listed as + (+ >10)

Looking up CC(C)(C)c1nc(C(F)F)cc(N2CCN(CCC3CCC(NC(=O)C4CCC(O)CC4)CC3)CC2)n1 (stereo not shown) , I see its D2/D3, Ki (D2L)/Ki (D3) listed as + (+ >10)
